- measured.on: UniProt P00735

>  <structure.as.smiles>
CC[C@H](C)[C@@H]1NC(=O)[C@@H]2CCCN2C(=O)[C@@H]2CCCN2C(=O)[C@H]([C@@H](C)CC)NC(=O)[C@H](CO)NC(=O)[C@H](CCCCN)NC(=O)[C@H]([C@@H](C)O)NC(=O)[C@@H]2CSSC[C@H](NC1=O)C(=O)N[C@@H](Cc1ccc3ccccc3c1)C(=O)N1CCC[C@H]1C(=O)N[C@@H](CC(=O)O)C(=O)NCC(=O)N[C@@H](CCCN=C(N)N)C(=O)N2

>  <Ki>
16.3 µM

$$$$

----------
- measured.on: Suppressor of tumorigenicity 14 protein (Homo sapiens)
- Sequence (Q9Y5Y6 whole entry): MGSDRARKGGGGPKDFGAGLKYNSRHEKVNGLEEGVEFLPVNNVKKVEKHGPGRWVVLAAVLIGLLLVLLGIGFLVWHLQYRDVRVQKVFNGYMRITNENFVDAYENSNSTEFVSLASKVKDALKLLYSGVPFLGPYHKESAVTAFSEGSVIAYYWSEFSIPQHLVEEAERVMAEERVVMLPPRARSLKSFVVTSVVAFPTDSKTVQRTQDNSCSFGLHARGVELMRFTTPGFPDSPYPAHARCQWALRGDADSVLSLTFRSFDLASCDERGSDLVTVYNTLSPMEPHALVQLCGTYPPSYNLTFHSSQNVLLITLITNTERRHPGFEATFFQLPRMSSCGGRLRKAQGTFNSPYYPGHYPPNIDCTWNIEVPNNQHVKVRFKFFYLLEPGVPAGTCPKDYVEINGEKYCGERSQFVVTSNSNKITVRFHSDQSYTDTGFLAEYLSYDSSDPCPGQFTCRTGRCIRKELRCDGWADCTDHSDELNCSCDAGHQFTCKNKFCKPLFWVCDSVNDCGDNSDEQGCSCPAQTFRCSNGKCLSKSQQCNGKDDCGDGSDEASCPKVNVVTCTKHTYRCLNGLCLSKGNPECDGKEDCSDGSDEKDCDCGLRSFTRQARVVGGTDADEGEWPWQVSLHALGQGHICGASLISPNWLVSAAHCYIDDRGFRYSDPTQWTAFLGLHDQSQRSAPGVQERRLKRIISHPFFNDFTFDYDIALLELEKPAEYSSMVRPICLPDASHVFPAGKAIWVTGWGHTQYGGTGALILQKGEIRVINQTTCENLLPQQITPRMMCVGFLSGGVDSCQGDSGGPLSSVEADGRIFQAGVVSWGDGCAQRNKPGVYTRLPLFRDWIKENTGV
- experimental.protocol: Enzyme Inhibition Assay
- measurement.parameters: pH 8.5; 22 °C
readout.type: Ki

>  <structure.as.smiles>
CC[C@H](C)[C@@H]1NC(=O)[C@@H]2CCCN2C(=O)[C@@H]2CCCN2C(=O)[C@H]([C@@H](C)CC)NC(=O)[C@H](CO)NC(=O)[C@H](CCCCN)NC(=O)[C@H]([C@@H](C)O)NC(=O)[C@@H]2CSSC[C@H](NC1=O)C(=O)N[C@@H](Cc1ccccc1)C(=O)N1CCC[C@H]1C(=O)N[C@@H](CC(=O)O)C(=O)NCC(=O)N[C@@H](Cc1ccc(N=C(N)N)cc1)C(=O)N2

>  <measured.on>
Suppressor of tumorigenicity 14 protein (Homo sapiens)

>  <readout.type>
Ki

>  <result>
90000 nM

$$$$
>  <structure.as.smiles>
CC[C@H](C)[C@@H]1NC(=O)[C@@H]2CCCN2C(=O)[C@@H]2CCCN2C(=O)[C@H]([C@@H](C)CC)NC(=O)[C@H](CO)NC(=O)[C@H](CCCCN)NC(=O)[C@H]([C@@H](C)O)NC(=O)[C@@H]2CSSC[C@H](NC1=O)C(=O)N[C@@H](Cc1c(F)c(F)c(F)c(F)c1F)C(=O)N1CCC[C@H]1C(=O)N[C@@H](CC(=O)O)C(=O)NCC(=O)N[C@@H](CCCN=C(N)N)C(=O)N2

>  <measured.on>
Suppressor of tumorigenicity 14 protein (Homo sapiens)

>  <readout.type>
Ki

>  <result>
890 nM

$$$$
>  <structure.as.smiles>
CC[C@H](C)[C@@H]1NC(=O)[C@@H]2CCCN2C(=O)[C@@H]2CCCN2C(=O)[C@H]([C@@H](C)CC)NC(=O)[C@H](CO)NC(=O)[C@H](CCCCN)NC(=O)[C@H]([C@@H](C)O)NC(=O)[C@@H]2CSSC[C@H](NC1=O)C(=O)N[C@@H](Cc1ccc3ccccc3c1)C(=O)N1CCC[C@H]1C(=O)N[C@@H](CC(=O)O)C(=O)NCC(=O)N[C@@H](CCCN=C(N)N)C(=O)N2

>  <measured.on>
Suppressor of tumorigenicity 14 protein (Homo sapiens)

>  <readout.type>
Ki

>  <result>
450 nM

$$$$

----------
Reported values: pKi for Prothrombin (Bos taurus), one per item.
pKi: −log10 of the molar value. Positions of bridges follow the written chain, without caps; N, C: chain ends. Residues, ends and D or L forms follow the SMILES beside them.
readout.type: pKi

>  <compound>
CC[C@H](C)[C@@H]1NC(=O)[C@H](CO)NC(=O)[C@H](CCCCN)NC(=O)[C@H]([C@@H](C)O)NC(=O)[C@@H]2CSSC[C@H](NC(=O)[C@H](CCC(N)=O)NC(=O)[C@@H]3CCCN3C(=O)[C@@H]3CCCN3C1=O)C(=O)N[C@@H](Cc1ccccc1)C(=O)N1CCC[C@H]1C(=O)N[C@@H](CC(=O)O)C(=O)NCC(=O)N[C@@H](CCCN=C(N)N)C(=O)N2 (cyclo(CFPDGRCTKSIPPQ); disulfide 1-7)

>  <value.operator>
<

>  <numeric.readout>
2.60

$$$$
>  <compound>
CC[C@H](C)[C@@H]1NC(=O)[C@@H]2CCCN2C(=O)[C@@H]2CCCN2C(=O)[C@H]([C@@H](C)CC)NC(=O)[C@H](CO)NC(=O)[C@H](CCCCN)NC(=O)[C@H]([C@@H](C)O)NC(=O)[C@@H]2CSSC[C@H](NC1=O)C(=O)N[C@@H](Cc1ccccc1)C(=O)N1CCC[C@H]1C(=O)N[C@@H](CC(=O)O)C(=O)NCC(=O)N[C@@H](CCCCN=C(N)N)C(=O)N2

>  <value.operator>
=

>  <numeric.readout>
5.12

$$$$
>  <compound>
CC[C@H](C)[C@@H]1NC(=O)[C@@H]2CCCN2C(=O)[C@@H]2CCCN2C(=O)[C@H]([C@@H](C)CC)NC(=O)[C@H](CO)NC(=O)[C@H](CCCCN)NC(=O)[C@H]([C@@H](C)O)NC(=O)[C@@H]2CSSC[C@H](NC1=O)C(=O)N[C@@H](Cc1ccccc1)C(=O)N1CCC[C@H]1C(=O)N[C@@H](CC(=O)O)C(=O)NCC(=O)N[C@@H](CCCNC(N)=O)C(=O)N2

>  <value.operator>
=

>  <numeric.readout>
3.08

$$$$

----------
Please consider the recorded pKi for Suppressor of tumorigenicity 14 protein (Homo sapiens, UniProt Q9Y5Y6) in what follows.
pKi: −log10 of the molar value. Positions of bridges follow the written chain, without caps; N, C: chain ends. Residues, ends and D or L forms follow the SMILES beside them.

>  <molecule>
CC[C@H](C)[C@@H]1NC(=O)[C@@H]2CCCN2C(=O)[C@@H]2CCCN2C(=O)[C@H]([C@@H](C)CC)NC(=O)[C@H](CO)NC(=O)[C@H](CCCCN)NC(=O)[C@H]([C@@H](C)O)NC(=O)[C@@H]2CCSSC[C@H](NC1=O)C(=O)N[C@@H](Cc1ccccc1)C(=O)N1CCC[C@H]1C(=O)N[C@@H](CC(=O)O)C(=O)NCC(=O)N[C@@H](CCCN=C(N)N)C(=O)N2

>  <pKi>
6.42

$$$$
>  <molecule>
CC[C@H](C)[C@@H]1NC(=O)[C@@H]2CCCN2C(=O)[C@@H]2CCCN2C(=O)[C@H]([C@@H](C)CC)NC(=O)[C@H](CO)NC(=O)[C@H](CCCCN)NC(=O)[C@H]([C@@H](C)O)NC(=O)[C@@H]2CSSC[C@H](NC1=O)C(=O)N[C@@H](Cc1ccccc1)C(=O)N1CCC[C@H]1C(=O)N[C@@H](CC(=O)O)C(=O)NCC(=O)N[C@@H](CCCCN=C(N)N)C(=O)N2

>  <pKi>
6.07

$$$$
>  <molecule>
CC[C@H](C)[C@@H]1NC(=O)[C@@H]2CCCN2C(=O)[C@@H]2CCCN2C(=O)[C@H]([C@@H](C)CC)NC(=O)[C@H](CO)NC(=O)[C@H](CCCCN)NC(=O)[C@H]([C@@H](C)O)NC(=O)[C@@H]2CSSC[C@H](NC1=O)C(=O)N[C@@H](Cc1ccccc1)C(=O)N1CCC[C@H]1C(=O)N[C@@H](CC(=O)O)C(=O)NCC(=O)N[C@@H](CCCNC(N)=O)C(=O)N2

>  <pKi>
4.65

$$$$
>  <molecule>
CC[C@H](C)[C@@H]1NC(=O)[C@@H]2CCCN2C(=O)[C@@H]2CCCN2C(=O)[C@H]([C@@H](C)CC)NC(=O)[C@H](CO)NC(=O)[C@H](CCCNC(=N)N)NC(=O)[C@H]([C@@H](C)O)NC(=O)[C@@H]2CSSC[C@H](NC1=O)C(=O)N[C@@H](Cc1ccccc1)C(=O)N1CCC[C@H]1C(=O)N[C@@H](CC(=O)O)C(=O)NCC(=O)N[C@@H](CCCNC(=N)N)C(=O)N2

>  <pKi>
5.32

$$$$
>  <molecule>
CC[C@H](C)[C@@H]1NC(=O)[C@@H]2CCCN2C(=O)[C@@H]2CCCN2C(=O)[C@H]([C@@H](C)CC)NC(=O)[C@H](CO)NC(=O)[C@H](CCCCN)NC(=O)[C@H]([C@@H](C)O)NC(=O)[C@@H]2CSSC[C@H](NC1=O)C(=O)N[C@@H](Cc1ccccc1)C(=O)N1CCC[C@H]1C(=O)N[C@@H](CC(=O)O)C(=O)NCC(=O)N[C@@H](CCCNC(=N)N)C(=O)N2

>  <pKi>
7.00

$$$$
>  <molecule>
CC[C@H](C)[C@@H]1NC(=O)[C@H](CO)NC(=O)[C@H](CCCCN)NC(=O)[C@H]([C@@H](C)O)NC(=O)[C@@H]2CSSC[C@H](NC(=O)[C@H](CCC(N)=O)NC(=O)[C@@H]3CCCN3C(=O)[C@@H]3CCCN3C1=O)C(=O)N[C@@H](Cc1ccccc1)C(=O)N1CCC[C@H]1C(=O)N[C@@H](CC(=O)O)C(=O)NCC(=O)N[C@@H](CCCN=C(N)N)C(=O)N2 (cyclo(CFPDGRCTKSIPPQ); disulfide 1-7)

>  <pKi>
5.63

$$$$

Hey, just so you know, these numbers are from BindingDB's records for doi:10.1021/jm0704898.
